test_summary: in vitro;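 note: Apical-to-basal permeability in Caco-2 cells with compound tested at 10 µM, read after 2 h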
conditions_used: human, Caco-2
measured_parameter: Papp A→B at 2 h, 10 µM (×10⁻⁶ cm/s)

compound	readout_units	Papp A→B at 2 h, 10 µM
Cc1cc(-c2nc(C(=O)Nc3cc4oc(N5CCOCC5)nc4nc3N3CC[C@H](O)C3)co2)ccn1	×10⁻⁶ cm/s	21.9
CCC1(O)CCCN(c2nc3nc(N4CCOCC4)oc3cc2NC(=O)c2coc(-c3ccnc(C)c3)n2)C1 (stereo not given)	×10⁻⁶ cm/s	8.5
Cc1cc(-c2nc(C(=O)Nc3cc4oc(N5CCOCC5)nc4nc3N3CCCC(F)C3)co2)ccn1 (stereo not given)	×10⁻⁶ cm/s	15.8
Cc1cc(-c2nc(C(=O)Nc3cc4oc(N5CCOCC5)nc4nc3N3CCC(O)CC3)co2)ccn1	×10⁻⁶ cm/s	13.5
Cc1cc(-c2nc(C(=O)Nc3cc4oc(N5CCOCC5)nc4nc3C3CC3)co2)ccn1	×10⁻⁶ cm/s	49.4

a. O=C(Nc1cc2oc(N3CCOCC3)nc2nc1C1CC1)c1coc(N2CC[C@H](O)C2)n1
b. Cc1cc(-c2nc(C(=O)Nc3cc4oc(N5CCOCC5)nc4nc3N3CC[C@@H](O)C3)co2)ccn1
c. Cc1cc(-c2nc(C(=O)Nc3cc4oc(N5CCOCC5)nc4nc3N3CC[C@@H](N)C3)co2)ccn1
Ask: Hey, quick one: sort these by Papp A→B at 2 h, 10 µM, largest value first please. Please respond by ranking the labels in the order requested.
Reply: a, b, c

1. Nc1ccc(-c2cccc(C(=O)Nc3ccc4nc(N5CCOCC5)oc4c3)n2)cn1
2. Cc1cc(-c2nc(C(=O)Nc3cc4oc(N5CCOCC5)nc4nc3N3CC[C@@H](F)C3)co2)ccn1
Ask: Lower value of Papp A→B at 2 h, 10 µM belongs to which: 1 or 2 ? Please identify the chosen entry by its label.
Reply: 1
